- measurement-protocol: Toxicity liver stage against HepG2, at 10uM
- Assay type: cell-based
- Parameters: test concentration 10 uM, cell line HepG2-A16-CD81EGFP
- test-conditions: human, HepG2-A16-CD81EGFP cells; read-out: INHIBITION
The entries below come with measured cytotoxicity at 10 µM values attached.
Write the number in % without appending the unit.

Worked examples follow.
compound: Cc1ncc(C(=O)N2CCCC(n3nc(C)nc3C)C2)c(C(C)C)n1 (stereo unspecified)
cytotoxicity at 10 µM, %: -1.81
//
compound: c1cncc(OCc2noc3c2CN(Cc2cccs2)CC3)c1
cytotoxicity at 10 µM, %: 9.95

Returns the measured cytotoxicity at 10 µM for the input compound. Input: c1ccc(-c2nc3c(c(NCc4nnc5n4CCC5)n2)CCNC3)cc1
-3.71

* * *

- measurement-protocol: Toxicity liver stage against HepG2, at 10uM
- Format: cell-based
- Parameters: test concentration 10 uM, cell line HepG2-A16-CD81EGFP
- test-conditions: human, HepG2-A16-CD81EGFP cells; read-out: INHIBITION
metric-name: cytotoxicity at 10 µM (%)
Supply the numeric figure in %, leaving out any unit text.

Worked cases, cytotoxicity at 10 µM given:
compound: C[C@@H](NCc1cccc(Cl)c1)c1onc(-c2ccc(F)cc2)c1C(=O)O
units-symbol: %
test-value: 0.258

compound: Cc1nc(C2CCCN2CC(=O)NCCOc2ccc(F)cc2)no1 (stereo unspecified)
units-symbol: %
test-value: -9.63

compound: Cc1[nH]/c(=N/C(=O)Cn2nc(N3CCOCC3)ccc2=O)sc1C
units-symbol: %
test-value: 1.81

compound: CC(C)CO[C@@H]1CC[C@H]2[C@H]1OCCN2S(=O)(=O)C1CC1
units-symbol: %
test-value: 4.04

compound: Cc1cnn(CC2CCCN2C(=O)c2cccc(-n3cnnn3)c2)c1 (stereo unspecified)
units-symbol: %
test-value: -4.3

Let us examine a further case.
Bench note: what cytotoxicity at 10 µM did CN1CCOC(CNCc2coc(-c3ccc(Cl)cc3)n2)C1 (stereo unspecified) show?
-9.99

* * *

This listing pairs compounds with measured cytotoxicity at 10 µM.
- measurement-protocol: Toxicity liver stage against HepG2, at 10uM
- Type: cell-based
- Parameters: test concentration 10 uM, cell line HepG2-A16-CD81EGFP
- test-conditions: human, HepG2-A16-CD81EGFP cells; read-out: INHIBITION
Supply the numeric figure in %, leaving out any unit text.

compound: COCCOc1ccc(CNc2nc3ccccc3o2)cn1
metric-name: cytotoxicity at 10 µM
test-value: 7.45

# query: cytotoxicity at 10 µM of entry CC(C)OCCCN1CCCC(c2nc3ccccc3n2C(C)C)C1 (centres undefined)
-4.06

Another compound: O=C(NCc1nnc2n1CCCCC2)N(CC1CCOC1)C1CC1 (centres undefined)
5.63

Proceed to Cc1oc(C(C)C)cc1C(=O)N1C[C@@H]2CC[C@H]1CN(S(=O)(=O)N(C)C)C2
-127

* * *

- measurement-protocol: Toxicity liver stage against HepG2, at 10uM
- Format: cell-based
- Design: test concentration 10 uM, cell line HepG2-A16-CD81EGFP
- test-conditions: human, HepG2-A16-CD81EGFP cells; read-out: INHIBITION
Listed below: cytotoxicity at 10 µM values for each entry.
Report only the number, with the unit % understood.

molecule: CNC(=O)[C@@H](C1CC1)N1CCC[C@H]1C(=O)NCC(C)C
units-symbol: %
cytotoxicity at 10 µM: -2.45
//
molecule: CC1c2ncc(Cn3cncn3)n2CCN1CC1CCOCC1 (stereo not given)
units-symbol: %
cytotoxicity at 10 µM: 2.84
//
molecule: Cc1ccc(SCC(=O)NS(=O)(=O)c2ccc3c(c2)OCCO3)cc1
units-symbol: %
cytotoxicity at 10 µM: -22.1

Which cytotoxicity at 10 µM is listed for Cc1cc(N(C)C)nc(C2(C)CCCNC2)n1 (stereo not given) ?
1.03

Can you handle COC(=O)c1ccc(NC2CCN(CC(F)(F)F)C2=O)cc1C (stereo not given) next?
2.79

Now try CCc1ccc(CN2CCN(c3cccc(OC)c3)C(=O)C2)nc1 .
1.76

Then COc1nn(C)cc1-c1nnc(SCc2cccnc2)n1C ?
-2.06

Try this molecule next: Cn1ccnc1-c1ccc(NC[C@H]2CCc3ccccc3O2)nn1
-5.71

Similarly, Cc1ncc(COc2ccc(N(C)S(C)(=O)=O)cc2)s1 ?
5.89

Similarly, Cc1nn(C)c2c(=O)n(CC(=O)Nc3cc(Cl)cc(Cl)c3)nnc12 ?
0.976

And then CCc1noc(CC)c1CC(=O)N1CCC(C(=O)NC(C)C)CC1 , what is it?
-10.9

Try this molecule next: O=C(NCCn1nc2ccccn2c1=O)c1cccc2[nH]ncc12
-0.472

Next record, please: Cc1cnn(CCC(=O)N2CCN(c3nccs3)CC2)c1
-8.03

Repeat with Cc1ncc(CN2CCCC(O)(c3ccc(F)cc3)CC2)n1C (stereo not given)
-4.04

Cn1ccnc1-c1nc(N2CCCCC2)ncc1-c1ccccc1F , same question.
12.4

One more molecule: Cc1nc2c(N(CCC(N)=O)CCc3ccccc3)ncnc2o1
4.6

Could you do the same for CCc1c(C)nc2cc(C3CCN(Cc4ccccc4F)C3)nn2c1O (stereo not given) , please?
1.7
